All figures here come from ChEMBL document CHEMBL5512613.

- Study Target: Tubulin
- Protocol Text: Inhibition of tubulin polymerization (unknown origin) measured for 60 mins by fluorescence based analysis
Measurement Type: IC50 (nM)

> print(dat)
                                smiles.repr  study.target  output.unit  value.measured
1  COc1cc(C(=O)n2nc(N)cc2-c2ccc(C)cc2)cc(OC)c1OC       Tubulin           nM            1870

====

Parameter: pIC50. Scope: all listed entries.
- Tested on: A549
- Protocol Text: Antiproliferative activity against human A549 cells assessed as inhibition of cell growth incubated for 48 hrs by MTT assay
- Assay type: functional, cell-based
- Test Context: A549, 48 h
pIC50: −log10 of the molar value.
Measurement Type: pIC50

> print(dat)
                                 smiles.repr  measurement.type  prefix.operator  value.measured
 1  COc1cc(C(=O)n2nc(N)cc2-c2ccc(Cl)cc2)cc(OC)c1OC             pIC50                =            5.87
 2  COc1cc(C(=O)n2nc(N)cc2-c2ccc(C)cc2)cc(OC)c1OC             pIC50                =            6.41
 3  Nc1cc(-c2ccc(F)cc2)n(C(=O)c2ccc3c(c2)OCO3)n1             pIC50                =            5.42
 4  COc1cccc(-c2cc(N)nn2C(=O)c2cc(OC)c(OC)c(OC)c2)c1             pIC50                =            6.05
 5  COc1cccc(-c2cc(N)nn2C(=O)c2ccc(OC)c(OC)c2)c1             pIC50                =            5.53
 6  Cc1ccc(-c2cc(N)nn2C(=O)c2ccc3c(c2)OCO3)cc1             pIC50                =            5.67
 7  COc1ccc(C(=O)n2nc(N)cc2-c2cccc(Cl)c2)cc1OC             pIC50                <            5.30
 8  COc1ccc(-c2cc(N)nn2C(=O)c2cc(OC)c(OC)c(OC)c2)cc1OC             pIC50                =            6.11
 9  COc1ccc(C(=O)n2nc(N)cc2-c2ccc(OC)c(OC)c2)cc1OC             pIC50                <            5.30
10  COc1cc(C(=O)n2nc(N)cc2-c2cccc(F)c2)cc(OC)c1OC             pIC50                =            5.54
11  COc1cc(C(=O)n2nc(N)cc2-c2cccc(Cl)c2)cc(OC)c1OC             pIC50                =            5.29
12  COc1cccc(-c2cc(N)nn2C(=O)c2ccc3c(c2)OCO3)c1             pIC50                <            5.30
13  COc1ccc(-c2cc(N)nn2C(=O)c2ccc3c(c2)OCO3)cc1OC             pIC50                =            5.56
14  COc1cc(C(=O)n2nc(N)cc2-c2cccc(Br)c2)cc(OC)c1OC             pIC50                =            5.66
